Structures can show the parent of a compound that is named as a salt.
Attribute: melting point

compound | melting point
CC(=N)Nc1ccc(CCc2nc(NC(C)=O)sc2Cc2ccc(S(C)(=O)=O)cc2)cc1 | 81.5 to 83 °C
CC(=O)Nc1nc(CCc2ccc(NC3=NCCS3)cc2)cs1 | 218 to 219.5 °C
CC(=O)Nc1nc(CCc2ccc(NC(=N)NN)cc2)cs1 | 216.5 to 218 °C
CC(=O)Nc1nc(CCc2ccc(NC(=N)N)cc2)c(C(=O)NCc2ccc([N+](=O)[O-])cc2)s1.Cl | 138 to 140 °C
CC(=O)Nc1nc(CCc2ccc(CON)cc2)cs1 | 130 to 130.5 °C
CC(=O)Nc1nc(CCc2ccc(C(=O)NC(=N)N)cc2)c(Cc2ccc(S(C)(=O)=O)cc2)s1 | 108 to 109.5 °C
CC(=O)Nc1nc(CCc2ccc(CC(=N)N)cc2)cs1 (as salt: hydrochloride) | 190.5 to 192 °C
CC(=O)Nc1nc(CCc2ccc(NC(=N)N)cc2)c(Cc2ccc(S(C)(=O)=O)cc2)s1 | 228 to 229.5 °C
CC(=O)Nc1nc(CCc2ccc(C(=N)N)cc2)cs1.Cl | 229.5 to 231 °C

meta.source: patent US7442715B2
